# studyTarget: CD3 on Jurkat (human, UniProt P07766)
# Sequence (P07766 23-207): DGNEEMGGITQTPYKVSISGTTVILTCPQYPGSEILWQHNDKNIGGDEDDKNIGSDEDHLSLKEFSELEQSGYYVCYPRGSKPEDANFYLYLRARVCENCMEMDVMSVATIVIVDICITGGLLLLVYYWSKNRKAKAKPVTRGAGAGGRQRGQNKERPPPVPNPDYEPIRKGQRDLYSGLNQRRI
# testDescription: FACS, Jurkat
endpointName: EC50

Asked: State the recorded EC50 for this entry: scDb YU250-H10xhuU3 CD3 arm (antibody, V domains shown) VH: QVQLVQSGAEVKKPGSSVKVSCKASGGTFSGYTMNWVRQAPGQGLEWMGLINPYKGVSTYNGKFKDRVTITADKSTSTAYMELSSLRSEDTAVYYCARSGYYGDSDWYFDVWGQGTLVTVSS VL: DIQMTQSPSSLSASVGDRVTITCRASQDIRNYLNWYQQKPGKAPKLLIYYTSRLHSGVPSRFSGSGSGTDFTFTISSLQPEDIATYYCQQGNTLPWTFGQGTKLEIKR
Given back: 7.56 nM

Asked: Entry eIg YU250-H10xhuU3 CD3 arm (antibody, V domains shown) VH: QVQLVQSGAEVKKPGSSVKVSCKASGGTFSGYTMNWVRQAPGQGLEWMGLINPYKGVSTYNGKFKDRVTITADKSTSTAYMELSSLRSEDTAVYYCARSGYYGDSDWYFDVWGQGTLVTVSS VL: DIQMTQSPSSLSASVGDRVTITCRASQDIRNYLNWYQQKPGKAPKLLIYYTSRLHSGVPSRFSGSGSGTDFTFTISSLQPEDIATYYCQQGNTLPWTFGQGTKLEIKR please
Given back: > 10 nM

Asked: Entry scDb-scFv YU250-H10xhuU3 CD3 arm (antibody, V domains shown) VH: QVQLVQSGAEVKKPGSSVKVSCKASGGTFSGYTMNWVRQAPGQGLEWMGLINPYKGVSTYNGKFKDRVTITADKSTSTAYMELSSLRSEDTAVYYCARSGYYGDSDWYFDVWGQGTLVTVSS VL: DIQMTQSPSSLSASVGDRVTITCRASQDIRNYLNWYQQKPGKAPKLLIYYTSRLHSGVPSRFSGSGSGTDFTFTISSLQPEDIATYYCQQGNTLPWTFGQGTKLEIKR please
Given back: > 10 nM

Asked: Entry Fab-eIg YU250-H10xhuU3 CD3 arm (antibody, V domains shown) VH: QVQLVQSGAEVKKPGSSVKVSCKASGGTFSGYTMNWVRQAPGQGLEWMGLINPYKGVSTYNGKFKDRVTITADKSTSTAYMELSSLRSEDTAVYYCARSGYYGDSDWYFDVWGQGTLVTVSS VL: DIQMTQSPSSLSASVGDRVTITCRASQDIRNYLNWYQQKPGKAPKLLIYYTSRLHSGVPSRFSGSGSGTDFTFTISSLQPEDIATYYCQQGNTLPWTFGQGTKLEIKR please
Given back: > 10 nM
